All values here come from PubChem BioAssay (NCI).

Tested on: M14 melanoma
Test: NCI tumour cell line growth inhibition, 48 h
# TGI per entry
Give the value, in units of µM, as a plain number.

A selection of reference data follows.
COc1cc(/C=C/C(=O)c2cc(OC)c(OC)c(OC)c2)ccc1Oc1nc2c(c(=O)n(C)c(=O)n2C)n1C
4.55
CCCCCCCCCCCCC[N+](C)(C)Cc1ccccc1
2.4

Measured TGI for this entry "CCN(CC)c1ccc(N=O)cc1" on M14 melanoma: 14.4

Result for Cc1[nH]c2c(C)cccc2c1C1Cc2ccccc2N1 (stereo not given) , tested on M14 melanoma, TGI: 29.6

Log: M14 melanoma, compound CC(=O)Oc1ccc2c(c1OC(C)=O)CCC1C2=CC[C@]2(C)C(=O)CCC12 (stereo not given in full) , TGI = 26.1

Simply: "CN(CCNC(=O)c1[nH]nc2c1Cc1ccccc1-2)CCNC(=O)c1[nH]nc2c1Cc1ccccc1-2" , M14 melanoma, TGI = 34.4

Record "O=C1/C(=C\c2ccc(Br)cc2)CN(C(=O)c2ccccc2F)C/C1=C\c1ccc(Br)cc1" ; system M14 melanoma; TGI = 3.78
